Experiment: [^3H]FUdR levels in inferior vena cava (IVC) and hepatic veins (HV) of rats intravenously injected with free or L-HSA conjugated [^3H]FUdR
Type: in vivo
Conditions: male, Wistar, plasma of inferior vena cava blood, iv; rat, i.v. 10 μg/g, 30 min; read-out: [^3H]FUdR level IVC
measured-metric: concentration at 30 min (ng/mL)

O=c1[nH]c(=O)n([C@H]2C[C@H](O)[C@@H](CO)O2)cc1F [Free FUdR, 5-fluoro-2′-deoxyuridine] ... 467

====

Experiment: [^3H]FUdR levels in inferior vena cava (IVC) and hepatic veins (HV) of rats intravenously injected with free or L-HSA conjugated [^3H]FUdR
Format: in vivo
Details: male, Wistar, plasma of inferior vena cava blood, iv; rat, i.v. 2.5 μg/g, 15 min; read-out: [^3H]FUdR level IVC
measured-metric: concentration at 15 min (ng/mL)

O=c1[nH]c(=O)n([C@H]2C[C@H](O)[C@@H](CO)O2)cc1F [Free FUdR, 5-fluoro-2′-deoxyuridine] ... 404

====

Assay: [^3H]FUdR levels in inferior vena cava (IVC) and hepatic veins (HV) of rats intravenously injected with free or L-HSA conjugated [^3H]FUdR
Type: in vivo
Conditions: male, Wistar, plasma of inferior vena cava blood, iv; rat, i.v. 10 μg/g, 7 min; read-out: [^3H]FUdR level IVC
measured-metric: concentration at 7 min (ng/mL)

O=c1[nH]c(=O)n([C@H]2C[C@H](O)[C@@H](CO)O2)cc1F [Free FUdR, 5-fluoro-2′-deoxyuridine] ... 1570

====

Experiment: [^3H]FUdR levels in inferior vena cava (IVC) and hepatic veins (HV) of rats intravenously injected with free or L-HSA conjugated [^3H]FUdR
Assay type: in vivo
Conditions: male, Wistar, plasma of inferior vena cava blood, iv; rat, i.v. 2.5 μg/g, 45 min; read-out: [^3H]FUdR level IVC
measured-metric: concentration at 45 min (ng/mL)

O=c1[nH]c(=O)n([C@H]2C[C@H](O)[C@@H](CO)O2)cc1F [Free FUdR, 5-fluoro-2′-deoxyuridine] ... 25.5

====

Assay: [^3H]FUdR levels in inferior vena cava (IVC) and hepatic veins (HV) of rats intravenously injected with free or L-HSA conjugated [^3H]FUdR
Assay type: in vivo
Conditions: male, Wistar, plasma of inferior vena cava blood, iv; rat, i.v. 2.5 μg/g, 30 min; read-out: [^3H]FUdR level IVC
measured-metric: concentration at 30 min

O=c1[nH]c(=O)n([C@H]2C[C@H](O)[C@@H](CO)O2)cc1F [Free FUdR, 5-fluoro-2′-deoxyuridine] ... 156 ng/mL

====

Test: [^3H]FUdR levels in inferior vena cava (IVC) and hepatic veins (HV) of rats intravenously injected with free or L-HSA conjugated [^3H]FUdR
Type: in vivo
Settings: male, Wistar, plasma of hepatic vein blood, iv; rat, i.v. 10 μg/g, 7 min; read-out: [^3H]FUdR level HV
measured-metric: concentration at 7 min (ng/mL)

O=c1[nH]c(=O)n([C@H]2C[C@H](O)[C@@H](CO)O2)cc1F [Free FUdR, 5-fluoro-2′-deoxyuridine] ... 385

====

Experiment: [^3H]FUdR levels in inferior vena cava (IVC) and hepatic veins (HV) of rats intravenously injected with free or L-HSA conjugated [^3H]FUdR
Assay type: in vivo
Conditions: male, Wistar, plasma of inferior vena cava blood, iv; rat, i.v. 0.15 μg/g, 7 min; read-out: [^3H]FUdR level IVC
measured-metric: concentration at 7 min

O=c1[nH]c(=O)n([C@H]2C[C@H](O)[C@@H](CO)O2)cc1F [Free FUdR, 5-fluoro-2′-deoxyuridine] ... 80.1 ng/mL

====

Experiment: [^3H]FUdR levels in inferior vena cava (IVC) and hepatic veins (HV) of rats intravenously injected with free or L-HSA conjugated [^3H]FUdR
Assay type: in vivo
Settings: male, Wistar, plasma of hepatic vein blood, iv; rat, i.v. 10 μg/g, 15 min; read-out: [^3H]FUdR level HV
measured-metric: concentration at 15 min (ng/mL)

O=c1[nH]c(=O)n([C@H]2C[C@H](O)[C@@H](CO)O2)cc1F [Free FUdR, 5-fluoro-2′-deoxyuridine] ... 203

====

Test: [^3H]FUdR levels in inferior vena cava (IVC) and hepatic veins (HV) of rats intravenously injected with free or L-HSA conjugated [^3H]FUdR
Type: in vivo
Conditions: male, Wistar, plasma of hepatic vein blood, iv; rat, i.v. 10 μg/g, 30 min; read-out: [^3H]FUdR level HV
measured-metric: concentration at 30 min (ng/mL)

O=c1[nH]c(=O)n([C@H]2C[C@H](O)[C@@H](CO)O2)cc1F [Free FUdR, 5-fluoro-2′-deoxyuridine] ... 77.5

====

Assay: [^3H]FUdR levels in inferior vena cava (IVC) and hepatic veins (HV) of rats intravenously injected with free or L-HSA conjugated [^3H]FUdR
Format: in vivo
Conditions: male, Wistar, plasma of inferior vena cava blood, iv; rat, i.v. 10 μg/g, 15 min; read-out: [^3H]FUdR level IVC
measured-metric: concentration at 15 min

O=c1[nH]c(=O)n([C@H]2C[C@H](O)[C@@H](CO)O2)cc1F [Free FUdR, 5-fluoro-2′-deoxyuridine] ... 1060 ng/mL

====

Assay: [^3H]FUdR levels in inferior vena cava (IVC) and hepatic veins (HV) of rats intravenously injected with free or L-HSA conjugated [^3H]FUdR
Type: in vivo
Details: male, Wistar, plasma of hepatic vein blood, iv; rat, i.v. free 1.2 μg/g, 15 min; read-out: [^3H]FUdR level HV
measured-metric: concentration at 15 min (ng/mL)

O=c1[nH]c(=O)n([C@H]2C[C@H](O)[C@@H](CO)O2)cc1F [Free FUdR, 5-fluoro-2′-deoxyuridine] ... 40.9
